System: Leishmania tropica
Protocol Text: The compound was tested for growth inhibition against Wild type parasites, at a concentration of 15 uM
Format: functional
Measured Metric: Growth inhibition (%)
Numbers only; they are read as %.

>>> value("CCC(C)C(=O)OC[C@]12[C@H](OC(=O)c3ccccc3)[C@@H](OC(=O)C(C)CC)[C@@H]3[C@@H](O)[C@]1(OC3(C)C)[C@@](C)(O)C[C@H](O)[C@@H]2OC(C)=O (stereo not given in full)")
5.3
>>> value("CCC(C)C(=O)OC[C@]12[C@H](OC(=O)c3ccccc3)[C@@H](OC(C)=O)[C@@H]3[C@@H](O)[C@]1(OC3(C)C)[C@@](C)(O)C[C@H](OC(=O)c1cccnc1)[C@@H]2O (stereo not given in full)")
9.3
>>> value("CCC(C)C(=O)OC[C@]12[C@H](OC(=O)c3ccccc3)[C@@H](OC(C)=O)[C@@H]3[C@@H](OC(C)=O)[C@]1(OC3(C)C)[C@@](C)(O)C[C@H](O)[C@@H]2OC(=O)c1ccccc1 (stereo not given in full)")
25.5
>>> value("CCC(C)C(=O)OC[C@]12[C@H](OC(=O)c3ccccc3)[C@@H](OC(C)=O)[C@@H]3[C@@H](O)[C@]1(OC3(C)C)[C@@](C)(O)C[C@H](O)[C@@H]2OC(=O)c1ccccc1 (stereo not given in full)")
9.8

Note: attention shifts to another entry.
Input: I'd like to know its Growth inhibition. The molecule in question is CCC(C)C(=O)OC[C@@]12[C@@H](OC(C)=O)CC[C@](C)(O)[C@]13OC(C)(C)[C@H]([C@@H](OC(=O)c1cccnc1)[C@@H]2OC(=O)c1ccccc1)[C@H]3OC(C)=O (stereo not given in full)
Output: 6.9
